Molecular target: T1, huCD33-R69 stably expressed on Jurkat cells (human, UniProt P20138 18-364)
T1 construct: whole, on cells; >200,000 receptors per cell; also called CD33 WT; CD33^ARG69
T1 sequence (P20138 18-364): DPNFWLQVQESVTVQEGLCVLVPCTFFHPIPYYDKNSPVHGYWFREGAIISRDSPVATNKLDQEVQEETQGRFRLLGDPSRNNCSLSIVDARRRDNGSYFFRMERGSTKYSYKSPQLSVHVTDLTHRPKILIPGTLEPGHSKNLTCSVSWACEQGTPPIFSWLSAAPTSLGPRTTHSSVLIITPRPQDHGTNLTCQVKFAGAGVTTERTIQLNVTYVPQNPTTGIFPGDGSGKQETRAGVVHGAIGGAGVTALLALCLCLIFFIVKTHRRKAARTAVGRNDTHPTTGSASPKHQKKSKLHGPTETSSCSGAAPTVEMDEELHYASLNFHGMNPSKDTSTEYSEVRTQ
Test: FACS on cells;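 also: fixed Jurkat lines probed with myc-tagged scFv periplasmic extracts, anti-myc PE flow cytometry, PE MFI fold binned − <2, + 2–10, ++ 10–30, +++ >30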
Measurement kind: FACS geometric mean fold change over Jurkat parental

Polypeptide No. 104 (scFv, V domains shown, scFv) VH: EVQLLESGGGLVQPGGSLRLSCAASGFTFSSSWMHWVRQAPGKGLEWVAVISYDGSEEYYADSVKGRFTISRDNSKNTLYLQMNSLRAEDTAVYYCARLTDYGDYVLGRYLSDWGQGTLVTVSS VL: DIQMTQSPSSLSASVGDRVTITCRASQGISSYLAWYQQKPGKAPKLLIYAASSLQSGVPSRFSGSGSGTDFTLTISSLQPEDFATYYCQQSYSIPPTFGQGTKLEIKR	> 30 fold
Polypeptide No. 91 (scFv, V domains shown, scFv) VH: QVQLVQSGAEVKKPGASVKVSCKASGGTFSSYAISWVRQAPGQGLEWMGWMNPNSGNTGYAQKFQGRVTMTRDTSTSTVYMELSSLRSEDTAVYYCAREDYYDSSGNFDYWGQGTLVTVSS VL: DIQMTQSPSSLSASVGDRVTITCQASHDINIHLNWYQQKPGKAPKLLIYDASNLETGVPSRFSGSGSGTDFTLTISSLQPEDFATYYCQQAYSLPWTFGQGTKVEIKR	> 30 fold
Polypeptide No. 98 (scFv, V domains shown, scFv) VH: QVQLVQSGAEVKKPGASVKVSCKASGGSFSSSAINWVRQAPGQGLEWMGWMNPNSGNTGYAQKFQGRVTMTRDTSTSTVYMELSSLRSEDTAVYYCARDRGIAVAGASPYYYYGMDVWGQGTTVTVSS VL: DIQMTQSPSSLSASVGDRVTITCRASQDIGSYLAWYQQKPGKAPKLLIYAASSLQSGVPSRFSGSGSGTDFTLTISSLQPEDFATYYCHQSYSTPFTFGQGTKLEIKR	10 to 30 fold
Polypeptide No. 192 (scFv, V domains shown, scFv) VH: QVQLVQSGAEVKKPGASVKVSCKASGYTFTNYYMHWVRQAPGQGLEWMGWINPNSGDTNYEQKFQGRVTMTRDTSTSTVYMELSSLRSEDTAVYYCARDDRIQLWVPLVFWGQGTLVTVSS VL: DIQMTQSPSSLSASVGDRVTITCRASQGISNYLAWYQQKPGKAPKLLIYSASNLQSGVPSRFSGSGSGTDFTLTISSLQPEDFATYYCQQSFSTPFTFGQGTKLEIKR	10 to 30 fold

Field: next binder
Tell me its FACS geometric mean fold change over Jurkat parental given Polypeptide No. 110 (scFv, V domains shown, scFv) VH: QVQLVQSGAEVKKPGASVKVSCKASGYTFTDYYVHWVRQAPGQGLEWMGWMNPNSGNTGYAQKFQGRVTMTRDTSTSTVYMELSSLRSEDTAVYYCARDFIWVEGYLASPPPRFDYWGQGTLVTVSS VL: DIQMTQSPSSLSASVGDRVTITCRASQRIGNWLAWYQQKPGKAPKLLIYAASSLQSGVPSRFSGSGSGTDFTLTISSLQPEDFATYYCQQSYSTPLTFGQGTKLEIKR as the entry.
> 30 fold
